- TEST SYSTEM: TGF-β receptors in mink lung epithelial cells
- ASSAY NAME: competition with 125I-TGF-β1 for binding to mink lung epithelial cells
Ends that are not written are not given here.
MEASUREMENT LABEL: pIC50
Schema: pIC50 number; meaning minus log10 of the concentration expressed in molar units.

-- ask What measured pIC50 goes with PYLWASDTQH [peptide β2^10 (49-58) S53A] ?
-- reply 4.40

-- ask What measured pIC50 goes with ANFCSGPCPYLRSADTTHSTVLGLY (not fully specified; cysteine pairing not given here) [peptide β3^25 (41-65)] ?
-- reply 4.70
